System: MILI (PIWIL2) piRISC loaded with L1MC piRNA (26 nt);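 further: 1 nM active piRISC with 0.1 nM target library at 33 °C single turnover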
Experiment: pre-steady-state target cleavage rate (min^-1); guide: L1MC piRNA 5'p-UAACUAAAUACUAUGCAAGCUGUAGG; higher = faster piRNA-guided slicing of the target
Conditions: auxiliary factor: 500 nM mouse GTSF1
Reported pre-steady-state target cleavage rate by item:
Form field (numeric): enter value without unit.

Here is how some sequences turned out for pre-steady-state target cleavage rate.
UCCUGGAUGAGCUUGCAUAGUAAAAAGUUA; 0.0673
UCCUGGAACAGCUUGCAUAGUAUUUACAAA; 0.222
UCCUGCUACUCCUUGCAUAGUAUUUACAAA; 0.0669
UCCUGGAUGUGGUUGGAUAGUAUUUAGUUA; 0.109
UCCUGCUACAGCUUGGUUAGUAUUUAGAAA; 0.018

Bench note: what pre-steady-state target cleavage rate did `UCCUGGAUGUCGUUGCAAAGUAUUUAGUUA` show? 0.0181

Bench note: what pre-steady-state target cleavage rate did `UCCUGGAUGUGCUUGGUUAGUAUUUAGUAA` show? 0.149

---

Test system: MILI (PIWIL2) piRISC loaded with L1MC piRNA (26 nt);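 further: 1 nM active piRISC with 0.1 nM target library at 33 °C single turnover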
Experiment: pre-steady-state target cleavage rate (min^-1); guide: L1MC piRNA 5'p-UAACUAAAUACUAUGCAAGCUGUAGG; higher = faster piRNA-guided slicing of the target
Conditions: auxiliary factor: 500 nM mouse GTSF1
Each entry belongs to exactly one class, chosen by where its pre-steady-state target cleavage rate falls: bottom bin = under 0.06, middle bin = from 0.06 up to 0.2, top bin = 0.2 and over

Class label required: `UCCUGGUACAGCUUGCAUAGUAUAUAGAAA` middle bin

Class label required: `UCCUGCUACAGCUUGGUAAGUAUUUAGUAA` top bin

Class label required: `UCCUCCUACAGCUUGAUAGUAUUUAGUUA` middle bin

Class label required: `UCCUGGAUGUGCAUGCAUAGUAUUUAGUAA` middle bin

Class label required: `UCCUCCUACUCGUUGCAUAGUAUUUAGAAA` middle bin

Class label required: `UCCUGGAUCAGCUUGCUAAGUAUUUAGUUA` middle bin

Class label required: `UCCUGGAUGAGCUUGCAUAGUAGUUUAGUUA` middle bin

Class label required: `UCCUGGAUGACUUGCAUAGUAUUUAGUUA` middle bin

Class label required: `UCCUGGAUGUGCUUGAUAGUAUUUAGUUA` bottom bin

Class label required: `UCCUGGAACAGCUUGCAAAGAAUUUAGUUA` middle bin

Class label required: `UCCUGGAUCUGCUUGCAUUGUAUUUAGUUA` middle bin

Class label required: `UCCUGCUACAGCUUGCAUAGUAUUAUGUUA` top bin

Class label required: `UCCUCCAACAGCUUGCAUAGUAUUUUCAAA` middle bin

Class label required: `UCCUGGAACACCUUGCAUAGUAUUUACUUA` bottom bin

Class label required: `UCCUGGAUGUCGAAGCAUAGUAUUCAGUUA` bottom bin

---

Tested on: EfPiwi piRISC loaded with L1MC piRNA (26 nt)
Assay: pre-steady-state target cleavage rate (min^-1); auxiliary factor: 500 nM Ephydatia muelleri Gtsf1; guide: L1MC piRNA 5'p-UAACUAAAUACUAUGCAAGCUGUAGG; MIWI and MILI are mouse PIWI proteins and EfPiwi is from a freshwater sponge; tags in brackets are library labels; higher = faster piRNA-guided slicing of the target
Label NOT MET if pre-steady-state target cleavage rate falls below 0.004; label MET in every other case.

Sample answers from the record:
UCCUGGAUGUCGAUGCAUAGUAUUUAGUUA [g2:g17:cont:t1A]; MET
UCCUGGUGCAGCUUGCAUAGUAUUUAGUUA; MET

Decide: is the reported value of pre-steady-state target cleavage rate for `UCCUGCUACAAGCUUGCAUAGUAUUUAGUUA` equal to or greater than 0.004? MET

Decide: is the reported value of pre-steady-state target cleavage rate for `UCCUCCUACACCUUGCAUAGUAUUUACAAA` equal to or greater than 0.004? NOT MET

Decide: is the reported value of pre-steady-state target cleavage rate for `UCCUGGAUGAGCAUGCAAAGUAUUUAGUUA` equal to or greater than 0.004? MET

Decide: is the reported value of pre-steady-state target cleavage rate for `UCCUGGUACAGUUGCAUAGUAUUUAGUUA` equal to or greater than 0.004? MET

Decide: is the reported value of pre-steady-state target cleavage rate for `UCCUGCUACAGCUUGACAUAGUAUUUAGUUA` equal to or greater than 0.004? MET

Decide: is the reported value of pre-steady-state target cleavage rate for `UCCUGGAUGUGCUUGCAUAGUAUUUAGGUUA` equal to or greater than 0.004? NOT MET

Decide: is the reported value of pre-steady-state target cleavage rate for `UCCUGGUACAGCUUGCAUAGUAGUUAGUUA` equal to or greater than 0.004? MET

Decide: is the reported value of pre-steady-state target cleavage rate for `UCCUGCUACAGCAAGCAUAGUAUUUAGUUA` equal to or greater than 0.004? MET
